experimentalTarget: Protein phosphatase 1D (Homo sapiens) (UniProt O15297)
Sequence (O15297 whole entry, looked up): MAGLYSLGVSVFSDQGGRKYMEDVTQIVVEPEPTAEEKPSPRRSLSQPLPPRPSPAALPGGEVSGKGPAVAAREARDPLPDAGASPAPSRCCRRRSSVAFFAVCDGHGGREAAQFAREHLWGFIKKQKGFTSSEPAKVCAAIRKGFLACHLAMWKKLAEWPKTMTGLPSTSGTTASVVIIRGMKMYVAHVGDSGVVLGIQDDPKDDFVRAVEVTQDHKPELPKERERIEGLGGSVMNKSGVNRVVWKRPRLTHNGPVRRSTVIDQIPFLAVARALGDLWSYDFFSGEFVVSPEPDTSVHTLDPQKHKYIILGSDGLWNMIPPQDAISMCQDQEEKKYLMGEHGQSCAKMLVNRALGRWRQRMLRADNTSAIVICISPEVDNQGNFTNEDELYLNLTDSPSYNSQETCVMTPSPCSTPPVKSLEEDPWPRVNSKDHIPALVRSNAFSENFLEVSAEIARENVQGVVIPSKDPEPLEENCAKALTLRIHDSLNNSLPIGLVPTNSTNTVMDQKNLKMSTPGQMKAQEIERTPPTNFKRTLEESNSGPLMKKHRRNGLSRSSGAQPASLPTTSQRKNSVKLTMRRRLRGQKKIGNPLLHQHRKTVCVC
experimentDescription: Rhodamine-PBP qHTS Assay for Modulators of WT P53-Induced Phosphatase 1 (WIP1) (AID 1347425)
particulars: recombinant WIP1, Rhodamine-PBP phosphate fluorescence, real-time; series mostly up to 57.5 µM
Method: Assay Provider (PI): Nathan Coussens Ph.D. National Center for Advancing Translational Sciences (NCATS), Rockville, MD National Institute of Health (NIH), Bethesda, Maryland […] Here, we describe two orthogonal biochemical WIP1 activity assays that utilize phosphopeptides from native WIP1 substrates. We optimized a RapidFire MS assay to quantify the enzymatically dephosphorylated peptide reaction product in a 384-well format. […] 8; Measurement taken at 1 min intervals for 11 min. Delta readout = f1 - f0.
Records with an inconclusive call do not appear. The source made the active and inactive calls. The call rests on the fitted dose curve; in most records, active means well fitted curve in the direction sought with a large enough effect; inconclusive means small, poorly fitted or top-dose-only effect, or another doubt; inactive means no such curve, though single readings can be large or run the other way.
endpoint: activity change, negative = inhibition

>  <molecule>
Fc1ccc(C(OCCN2CCN(CCCc3ccccc3)CC2)c2ccc(F)cc2)cc1

>  <endpoint>
activity change, negative = inhibition

>  <obsValue>
inactive

$$$$
>  <molecule>
CC[C@@H](CO)NC(=O)[C@@H]1C=C2c3cccc4[nH]cc(c34)C[C@H]2N(C)C1

>  <endpoint>
activity change, negative = inhibition

>  <obsValue>
inactive

$$$$
>  <molecule>
CC[N+]1(C)CCCC(OC(=O)C(O)(c2ccccc2)c2ccccc2)C1 (centres undefined)

>  <endpoint>
activity change, negative = inhibition

>  <obsValue>
inactive

$$$$
>  <molecule>
O=[N+]([O-])c1cc([As](=O)(O)O)ccc1O

>  <endpoint>
activity change, negative = inhibition

>  <obsValue>
inactive

$$$$
>  <molecule>
O=C1NCN(c2ccccc2)C12CCN(CC1COc3ccccc3O1)CC2 (centres undefined)

>  <endpoint>
activity change, negative = inhibition

>  <obsValue>
inactive

$$$$

# batch: return activity change, negative = inhibition for each of the 4 molecules below
1. NN=C(N)N
2. CN(C)CCc1ccc(O)cc1
3. C[C@H]1O[C@@H](O[C@H]2[C@@H](O)C[C@H](O[C@H]3[C@@H](O)C[C@H](O[C@H]4CC[C@@]5(C)[C@H](CC[C@@H]6[C@@H]5CC[C@]5(C)[C@@H](C7=CC(=O)OC7)CC[C@]65O)C4)O[C@@H]3C)O[C@@H]2C)C[C@H](O)[C@@H]1O
4. C=C1C[C@@H]2[C@H](CC[C@]3(C)C(=O)CC[C@@H]23)[C@@]2(C)C=CC(=O)C=C12

inactive
inactive
inactive
inactive

* * *

experimentalTarget: Mitogen-activated protein kinase 10 (Mus musculus)
experimentDescription: JNK3 AlphaScreen Assay (AID 530);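 further: kinase came from lysate of stimulated human HepG2 cells; signal reports phosphorylation of biotinylated GST-cJun 1-79 at Ser73 with 10 µM ATP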
particulars: JNK3 lysate, c-Jun phosphorylation; series mostly up to 57.1 µM
Results filed as inconclusive are left out. Calls of active or inactive are those of the source. The call rests on the fitted dose curve; in most records, active means well fitted curve in either direction with a large enough effect (not every such curve was filed as active); inconclusive means small, poorly fitted or top-dose-only effect, or another doubt; inactive means flat fitted curve, though single readings scatter.
endpoint: outcome

>  <molecule>
CCCC(C)(COC(N)=O)COC(=O)NC(C)C (stereo not drawn)

>  <endpoint>
outcome

>  <obsValue>
inactive

$$$$
>  <molecule>
Cc1ncc(CNC(=O)N(CCCl)N=O)c(N)n1

>  <endpoint>
outcome

>  <obsValue>
inactive

$$$$
>  <molecule>
COC1(CS(=O)c2ccccc2)CCN(CCc2c[nH]c3ccc(F)cc23)CC1 (stereo not drawn)

>  <endpoint>
outcome

>  <obsValue>
inactive

$$$$

* * *

experimentDescription: qHTS of pediatric cancer cell lines to identify multiple opportunities for drug repurposing: Primary screen for BT-12 cells (AID 1347101); further: nearly all actives have a fitted effect of over 25% in size
particulars: BT-12 viability, CellTiter-Glo luminescence, 48 h; series mostly up to 57.3 µM
Records with an inconclusive call do not appear. Calls of active or inactive are those of the source. The call rests on the fitted dose curve; in most records, active means well fitted cell-killing curve with a large enough effect; inconclusive means small, poorly fitted or top-dose-only effect; inactive means flat fitted curve, though single readings scatter.
Bench note: report the call from T for active, F for inactive

The examples below pair each entry with its known result.
>  <compound>
CC(C)(N)Cc1ccc(Cl)cc1

>  <group>
F

$$$$
>  <compound>
O=C(NC(O)C(Cl)(Cl)Cl)NC(O)C(Cl)(Cl)Cl (stereo not drawn)

>  <group>
F

$$$$
>  <compound>
Clc1ccc(COC(Cn2ccnc2)c2ccc(Cl)cc2Cl)cc1 (stereo not drawn)

>  <group>
T

$$$$
>  <compound>
c1ccc2c(c1)OCC(C1=NCCN1)O2 (stereo not drawn)

>  <group>
T

$$$$
>  <compound>
c1ccc(C2CC2)c(OCC2=NCCN2)c1

>  <group>
F

$$$$
>  <compound>
FC(F)(F)c1cccc(C2=CCN(CCc3ccc4ccccc4c3)CC2)c1

>  <group>
F

$$$$
>  <compound>
NP(N)(=O)NC(=O)c1ccc(F)cc1

>  <group>
F

$$$$
>  <compound>
COc1ccc(C(CN(C)C)C2(O)CCCCC2)cc1 (stereo not drawn)

>  <group>
F

$$$$

What call does the record list for CC1OC(C)OC(C)O1 (stereo not drawn) ?
F

Also need `CCCN1CCC[C@@H]2Cc3[nH]ncc3C[C@H]21` , thanks.
F

Also need `Oc1cc(Cl)ccc1Oc1ccc(Cl)cc1Cl` , thanks.
T

Also need `CCN(CC)C(=O)N[C@@H]1C=C2c3cccc4[nH]cc(c34)C[C@@H]2N(C)C1` , thanks.
F

Also need `Oc1ccc(Cl)cc1Cc1ccccc1` , thanks.
F
